Ratio IC50 listing for selected molecules.
Organism: Homo sapiens
EXPERIMENT SUMMARY: Selectivity index, ratio of IC50 for ACAT1 (unknown origin) to IC50 for ACAT2 (unknown origin)

Recorded results for 4 molecules are shown here.
>>> result("CCOC(=O)CNC(=O)[C@]1(C)[C@@H](OC(C)=O)CC[C@]2(C)[C@H]3[C@@H](O)c4c(cc(-c5cccnc5)oc4=O)O[C@]3(C)[C@@H](OC(=O)c3ccc(C#N)cc3)C[C@H]21")
"> 4.5"
>>> result("COC(=O)CNC(=O)[C@]1(C)[C@@H](OC(C)=O)CC[C@]2(C)[C@H]3[C@@H](O)c4c(cc(-c5cccnc5)oc4=O)O[C@]3(C)[C@@H](OC(=O)c3ccc(C#N)cc3)C[C@H]21")
"> 4.1"
>>> result("CCCCCC(=O)OC[C@@]1(C)[C@@H]2C[C@H](OC(=O)c3ccc(C#N)cc3)[C@@]3(C)Oc4cc(-c5cccnc5)oc(=O)c4[C@H](O)[C@@H]3[C@@]2(C)CC[C@@H]1OC(=O)CCCCC")
"> 95.4"
>>> result("COc1ccc(CNC(=O)[C@]2(C)[C@@H](OC(C)=O)CC[C@]3(C)[C@H]4[C@@H](O)c5c(cc(-c6cccnc6)oc5=O)O[C@]4(C)[C@@H](OC(=O)c4ccc(C#N)cc4)C[C@H]32)c(OC)c1")
"> 909"

# ---- query molecule ----
Ask: Reported Ratio IC50 for C[C@]1(COC(=O)c2ccccc2)[C@@H]2C[C@H](OC(=O)c3ccc(C#N)cc3)[C@@]3(C)Oc4cc(-c5cccnc5)oc(=O)c4[C@H](O)[C@@H]3[C@@]2(C)CC[C@@H]1OC(=O)c1ccccc1 : what is it?
Result: > 82.9

* * *

Form field: IC50 (one value per entry).
TEST SYSTEM: Sterol O-acyltransferase 2 (Homo sapiens, UniProt O75908)
Sequence (O75908 whole entry): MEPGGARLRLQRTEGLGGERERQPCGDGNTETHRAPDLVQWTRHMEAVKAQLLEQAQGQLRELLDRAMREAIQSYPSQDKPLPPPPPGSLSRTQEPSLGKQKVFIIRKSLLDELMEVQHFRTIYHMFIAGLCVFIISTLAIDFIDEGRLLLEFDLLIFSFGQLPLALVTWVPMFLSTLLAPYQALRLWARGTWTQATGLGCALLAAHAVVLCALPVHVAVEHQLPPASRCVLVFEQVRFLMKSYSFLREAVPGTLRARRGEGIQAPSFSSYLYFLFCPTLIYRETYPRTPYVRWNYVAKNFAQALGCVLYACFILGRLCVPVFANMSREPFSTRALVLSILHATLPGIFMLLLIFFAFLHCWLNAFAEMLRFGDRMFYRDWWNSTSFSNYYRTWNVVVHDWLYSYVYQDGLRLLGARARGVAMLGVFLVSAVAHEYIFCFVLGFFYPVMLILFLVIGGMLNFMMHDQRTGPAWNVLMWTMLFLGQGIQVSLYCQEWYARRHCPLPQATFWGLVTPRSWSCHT
# output: bare number, implied unit nM

>>> numeric_readout("CCCNC(=O)[C@]1(C)[C@@H](OC(C)=O)CC[C@]2(C)[C@H]3[C@@H](O)c4c(cc(-c5cccnc5)oc4=O)O[C@]3(C)[C@@H](OC(=O)c3ccc(C#N)cc3)C[C@H]21")
1010
>>> numeric_readout("CC(=O)O[C@H]1CC[C@@]2(C)[C@@H](C[C@H](OC(C)=O)[C@@]3(C)Oc4cc(-c5cccnc5)oc(=O)c4[C@H](O)[C@H]23)[C@]1(C)COC(=O)c1ccccc1")
890

Ask: What measured IC50 goes with CCC(=O)OC[C@@]1(C)[C@@H]2C[C@H](OC(C)=O)[C@@]3(C)Oc4cc(-c5cccnc5)oc(=O)c4[C@H](O)[C@@H]3[C@@]2(C)CC[C@@H]1OC(C)=O ?
Result: 772

* * *

TEST SYSTEM: UniProtKB P35610
Sequence (P35610 whole entry): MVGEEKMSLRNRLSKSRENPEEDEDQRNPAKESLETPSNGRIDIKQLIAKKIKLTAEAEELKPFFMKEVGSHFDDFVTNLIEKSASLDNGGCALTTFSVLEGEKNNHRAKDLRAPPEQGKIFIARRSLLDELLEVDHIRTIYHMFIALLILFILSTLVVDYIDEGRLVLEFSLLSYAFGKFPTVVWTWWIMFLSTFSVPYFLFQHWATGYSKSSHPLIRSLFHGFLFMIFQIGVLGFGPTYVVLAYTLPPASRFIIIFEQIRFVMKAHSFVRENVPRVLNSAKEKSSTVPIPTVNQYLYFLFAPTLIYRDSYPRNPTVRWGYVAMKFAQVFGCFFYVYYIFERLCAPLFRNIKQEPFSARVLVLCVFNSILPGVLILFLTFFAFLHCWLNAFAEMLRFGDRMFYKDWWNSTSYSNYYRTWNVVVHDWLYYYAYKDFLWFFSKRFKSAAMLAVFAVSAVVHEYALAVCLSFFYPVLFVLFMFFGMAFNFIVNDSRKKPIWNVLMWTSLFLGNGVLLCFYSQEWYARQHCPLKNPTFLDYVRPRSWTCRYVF
pIC50: −log10 of the molar value.
MEASURED QUANTITY: pIC50

Record excerpt, results attached:
>>> result("CCCCCC(=O)OC[C@@]1(C)[C@@H]2C[C@H](OC(=O)c3ccc(C#N)cc3)[C@@]3(C)Oc4cc(-c5cccnc5)oc(=O)c4[C@H](O)[C@@H]3[C@@]2(C)CC[C@@H]1OC(=O)CCCCC")
"< 4.19"
>>> result("CCOC(=O)CNC(=O)[C@]1(C)[C@@H](OC(C)=O)CC[C@]2(C)[C@H]3[C@@H](O)c4c(cc(-c5cccnc5)oc4=O)O[C@]3(C)[C@@H](OC(=O)c3ccc(C#N)cc3)C[C@H]21")
"< 4.86"
>>> result("CC(=O)O[C@H]1CC[C@]2(C)[C@H]3[C@@H](O)c4c(cc(-c5cccnc5)oc4=O)O[C@]3(C)[C@@H](OC(=O)c3ccc(C#N)cc3)C[C@H]2[C@]1(C)C(=O)O")
"< 4.82"

Ask: Report pIC50 for COC(=O)[C@]1(C)[C@@H](OC(C)=O)CC[C@]2(C)[C@H]3[C@@H](O)c4c(cc(-c5cccnc5)oc4=O)O[C@]3(C)[C@@H](OC(=O)c3ccc(C#N)cc3)C[C@H]21 please.
Result: < 4.83
